These measurements were taken from patent US8361998B2.

Target: human cardiac ion channel proteins hKir3.1/Kir3.4 (Homo sapiens, UniProt P48544+P48549)
Construct: expressed in transfected cells
Sequence (P48549 whole entry): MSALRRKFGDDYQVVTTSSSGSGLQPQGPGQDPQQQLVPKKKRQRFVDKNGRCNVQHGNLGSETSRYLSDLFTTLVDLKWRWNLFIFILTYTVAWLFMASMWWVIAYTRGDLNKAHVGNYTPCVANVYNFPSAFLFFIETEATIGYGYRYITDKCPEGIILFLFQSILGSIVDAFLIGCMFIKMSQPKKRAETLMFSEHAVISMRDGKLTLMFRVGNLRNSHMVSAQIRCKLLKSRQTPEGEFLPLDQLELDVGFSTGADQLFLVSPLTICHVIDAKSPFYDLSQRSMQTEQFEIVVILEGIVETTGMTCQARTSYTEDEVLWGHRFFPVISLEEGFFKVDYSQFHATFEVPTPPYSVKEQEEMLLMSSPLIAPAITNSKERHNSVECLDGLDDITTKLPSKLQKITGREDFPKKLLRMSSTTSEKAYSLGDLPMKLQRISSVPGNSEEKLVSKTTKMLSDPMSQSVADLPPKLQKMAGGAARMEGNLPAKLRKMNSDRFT
Sequence (P48544 whole entry): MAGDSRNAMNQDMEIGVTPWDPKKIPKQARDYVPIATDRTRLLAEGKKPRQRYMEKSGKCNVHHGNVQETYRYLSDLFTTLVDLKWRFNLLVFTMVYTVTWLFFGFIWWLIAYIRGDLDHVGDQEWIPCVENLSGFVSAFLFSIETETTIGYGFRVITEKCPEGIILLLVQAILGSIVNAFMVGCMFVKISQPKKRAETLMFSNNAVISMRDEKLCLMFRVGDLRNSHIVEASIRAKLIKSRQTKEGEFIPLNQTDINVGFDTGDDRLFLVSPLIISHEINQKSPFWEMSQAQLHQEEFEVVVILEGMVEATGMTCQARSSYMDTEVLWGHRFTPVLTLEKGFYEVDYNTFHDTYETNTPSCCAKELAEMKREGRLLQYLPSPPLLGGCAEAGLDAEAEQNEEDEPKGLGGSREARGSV
Experiment: Atomic Absorption Screening (AAS) Rb efflux assay of hKir3.1/Kir3.4 block, carbachol/high K+ stimulated, 10-pt or 7-pt CR
Assay type: cell-based
Conditions: 7-pt CR (0.037 to 27 μmol/L), AAS Rb efflux, CHO-K1 cells expressing hKir3.1/Kir3.4; mean of >3 replicates; read-out: IKACh IC50 7-pt CR, AAS
// returns label 0 unless IC50 is strictly below 3 µM, in which case label 1

| Compound | Class name |
| --- | --- |
| Cc1ccc(C(=O)N(C)[C@H](CN2CCCC2)C(C)C)cc1 [Example 16.14] | label 0 |
| CC(C)[C@@H](CN1CCCC1)N(C)C(=O)c1ccc(Cl)c(Cl)c1 [Example 16.51] | label 1 |
| Cc1c(F)cccc1C(=O)N(C)[C@H](CN1CC[C@H](O)C1)C(C)C [Example 16.45] | label 0 |
| CC(C)[C@@H](CN1CCCC1)N(C)C(=O)c1ccccc1OC(F)F [Example 16.54] | label 0 |
| CC(C)[C@@H](CN1CC[C@H](O)C1)N(C)C(=O)c1cc(F)cc(C(F)(F)F)c1 [Example 16.44] | label 0 |
| COc1cc(C(=O)N(C)[C@H](CN2CCCC2)C(C)C)ccc1F [Example 16.11] | label 0 |
| CC(C)[C@@H](CN1CCCC1)N(C)C(=O)c1ccc(Cl)cc1Cl [Example 16.47] | label 1 |
| CC(C)[C@@H](CN1CCCC1)N(C)C(=O)c1cccc(C(F)(F)F)c1 [Example 16.10] | label 1 |
| CC(C)[C@@H](CN1CCCCC1)N(C)C(=O)c1ccc(Cl)cc1 [Example 16.34] | label 0 |
